B1: Protein PTHB1 (Homo sapiens), Q3SYG4 (parent)
chain: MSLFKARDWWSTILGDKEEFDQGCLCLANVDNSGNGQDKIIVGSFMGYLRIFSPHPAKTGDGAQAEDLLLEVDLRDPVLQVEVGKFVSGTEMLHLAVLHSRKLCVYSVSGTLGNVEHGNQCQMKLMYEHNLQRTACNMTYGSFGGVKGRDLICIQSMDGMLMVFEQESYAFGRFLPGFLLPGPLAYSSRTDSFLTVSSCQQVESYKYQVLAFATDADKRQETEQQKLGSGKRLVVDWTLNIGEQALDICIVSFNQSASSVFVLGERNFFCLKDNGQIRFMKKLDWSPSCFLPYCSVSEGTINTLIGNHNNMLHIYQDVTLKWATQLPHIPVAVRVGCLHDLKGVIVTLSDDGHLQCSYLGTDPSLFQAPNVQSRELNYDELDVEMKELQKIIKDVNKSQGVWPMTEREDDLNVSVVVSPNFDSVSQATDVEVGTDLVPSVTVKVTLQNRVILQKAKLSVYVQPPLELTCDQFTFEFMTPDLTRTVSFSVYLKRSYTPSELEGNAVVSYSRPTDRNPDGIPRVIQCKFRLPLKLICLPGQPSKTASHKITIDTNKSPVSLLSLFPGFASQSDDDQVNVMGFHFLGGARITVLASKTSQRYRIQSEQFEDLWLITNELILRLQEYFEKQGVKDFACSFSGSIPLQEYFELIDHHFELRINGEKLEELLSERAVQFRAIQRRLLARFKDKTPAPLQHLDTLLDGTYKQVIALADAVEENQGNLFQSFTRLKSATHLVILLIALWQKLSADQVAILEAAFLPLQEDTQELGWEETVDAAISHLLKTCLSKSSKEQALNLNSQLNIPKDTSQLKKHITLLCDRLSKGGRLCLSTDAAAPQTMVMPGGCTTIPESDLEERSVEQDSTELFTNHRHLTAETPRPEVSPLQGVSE
partner: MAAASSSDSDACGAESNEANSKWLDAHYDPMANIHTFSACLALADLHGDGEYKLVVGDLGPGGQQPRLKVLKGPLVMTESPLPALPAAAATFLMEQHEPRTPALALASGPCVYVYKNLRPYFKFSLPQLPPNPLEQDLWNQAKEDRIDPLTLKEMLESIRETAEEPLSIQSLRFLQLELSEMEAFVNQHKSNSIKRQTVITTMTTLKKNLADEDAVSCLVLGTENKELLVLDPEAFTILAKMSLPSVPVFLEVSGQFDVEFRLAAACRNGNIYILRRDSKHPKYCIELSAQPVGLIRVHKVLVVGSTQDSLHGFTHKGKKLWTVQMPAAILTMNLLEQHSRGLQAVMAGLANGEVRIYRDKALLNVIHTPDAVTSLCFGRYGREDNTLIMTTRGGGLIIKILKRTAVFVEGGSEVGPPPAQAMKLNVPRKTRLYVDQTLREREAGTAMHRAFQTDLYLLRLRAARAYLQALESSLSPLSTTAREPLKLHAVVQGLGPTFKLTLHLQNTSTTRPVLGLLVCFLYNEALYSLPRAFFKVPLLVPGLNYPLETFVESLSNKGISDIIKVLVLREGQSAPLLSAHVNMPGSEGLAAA

Variants of: B1
condition-details: with bbs1_human BBS1, Q8NFJ9
property-label: effect of a mutation on the interaction

Some variants with recorded effect of a mutation on the interaction:
L795E
with no effect
F632A
with no effect
Q471A
with no effect
L870E
with no effect
S558K
with no effect

Query (variant): S507K ; field requested: effect of a mutation on the interaction
with no effect

Look up effect of a mutation on the interaction for this variant: P479A
with no effect

# effect of a mutation on the interaction lookup, item D700A
with no effect

I would be grateful if you could share the reported effect of a mutation on the interaction for A427E .
with no effect

Item under review: L536E . Reported effect of a mutation on the interaction?
with no effect
